Entry source: patent US20100063302A1

Reported IC50 values, isomaltase (Homo sapiens, UniProt P14410).

| COMPOUND | IC50 [µM] |
| --- | --- |
| O=S(=O)([O-])OC(C(O)C[S+]1CC(O)C(O)C1CO)C(O)C(O)C(O)CO (stereo not drawn) [Compound (6c)] | 16.2 |
| O=S(=O)([O-])OC(C(O)C[S+]1CC(O)C(O)C1CO)C(O)C(O)C(O)CO (single isomer, unassigned) [Compound (6d)] | 6.53 |
| O=S(=O)([O-])OC(C(O)C[S+]1CC(O)C(O)C1CO)C(O)C(O)C(O)CO (single isomer, unassigned) [kotalanol, reference compound] | 5.68 |
| O=S(=O)([O-])OC(C(O)C[S+]1CC(O)C(O)C1CO)C(O)C(O)C(O)CO (single isomer, unassigned) [Compound (6a)] | 1.63 |
| O=S(=O)([O-])OC(C(O)C[S+]1CC(O)C(O)C1CO)C(O)C(O)C(O)CO (single isomer, unassigned) [Compound (6b)] | 10.8 |
| O=S(=O)([O-])OC(C(O)C[S+]1CC(O)C(O)C1CO)C(O)C(O)C(O)CO (single isomer, unassigned) [Compound (6g)] | 158 |
